Kindly supply the reported inhibition values for the records listed here.
# Tested on: HIV-1 gp120 / PG9 antibody interaction
# METHOD_SUMMARY: binders of HIV-1 gp120 antibody PG9, primary screen, biochemical, TR-FRET (AID 624416)
# PARTICULARS: TR-FRET gp120-PG9 antibody binding; at 6.7 µM; active compounds read high
In all, about 360,000 compounds went through this assay and about 1,500 (0.42%) were called active. For the sample, actives were picked, then their nearest neighbours and some compounds at random.
Give bare numbers, in %.

I would be grateful if you could provide inhibition for each of the following entries.
1. CC(=O)c1sc2nc(SCC(=O)N3CCCCC3)[nH]c(=O)c2c1C
2. O=C(N=C1SC2CS(=O)(=O)CC2N1Cc1ccccc1)c1ccccc1 (stereo not given)

[21.1, 34]

Give one value of inhibition per listed compound.
1. O=C(C1=C(O)C(=O)N(Cc2ccccc2)C1c1cccnc1)c1ccco1 (stereo not given)
2. Cc1cc(OC(=O)NCCc2ccc(F)cc2)ccc1F
3. O=C(N=C1SC2CS(=O)(=O)CC2N1c1ccccc1)c1ccccc1 (stereo not given)
4. O=C(C1=C(O)C(=O)N(Cc2ccccc2)C1c1ccco1)c1ccco1 (stereo not given)

1. 7.52
2. 0.4
3. -0.55
4. 17.9
